System: SK-MEL-28 melanoma
Assay: NCI tumour cell line growth inhibition, 48 h
# GI50 per entry

Reference set (3 entries):
# MOLECULE, GI50
records = [
    ("CC(O)c1cccc(NCc2c3ccccc3c(=O)n3c2oc2ccccc23)c1 (configuration not stated)", "6 µM"),
    ("O=S(=O)(NC1=NCCN1C(=S)SN1CCn2c1nsc2=S)c1ccc(Br)cc1", "72.5 µM"),
    ("Cc1cc(C)c([O-])c(CN(C)CCN(C)Cc2cc(C)cc(C)c2[O-])c1.O=C([O-])c1cccc(C(=O)[O-])n1.[Ti+4]", "2.42 µM"),
]

Task: State, for SK-MEL-28 melanoma, measured GI50 of the molecule listed here: `C=C1C(=O)O[C@H]2[C@H]1CC/C(CNC(=O)c1cc3cc(OC)ccc3[nH]1)=C\CC[C@@]1(C)O[C@@H]21`
Result: 1.62 µM

Task: Give SK-MEL-28 melanoma GI50 for the following molecule: CC(C)=CCCC(C)c1ccc(C)c2c1OCN(CC1CCNCC1)C2 (configuration not stated)
Result: 15.7 µM

Task: Specify GI50 for `CCOC(=O)c1cc(C#N)c(=O)n(/N=C(\C)c2ccncc2)c1O` , system SK-MEL-28 melanoma.
Result: > 100 µM

Task: Determine reported GI50 for `COc1ccc(CN(C)c2ccc(CO)c(Cl)c2)cc1` ; test system: SK-MEL-28 melanoma.
Result: 24.6 µM

Task: Look up and report GI50, with SK-MEL-28 melanoma as system, for `CC(=O)c1c(C)[nH]c(-c2nc3ccc(N4CCN(C)CC4)cc3[nH]2)c1-c1ccc(OCC2CCOCC2)cc1`
Result: 1.62 µM

* * *

Tested on: SF-539 CNS
Assay: NCI tumour cell line growth inhibition, 48 h
Listed here: items and their measured TGI.
Give the value, in units of µM, as a plain number.

# COMPOUND, TESTED SYSTEM, REPORTED PROPERTY, READOUT VALUE
data = [
    ("COC(=O)C1=C(O)C(C(=O)OC)[C@]2(O)[C@H](C(=O)OC)[C@H]1C[C@@H](c1ccc(F)cc1)[C@H]2C(=O)OC (stereo partly specified)", "SF-539 CNS", "TGI", 41),
    ("CN(C)c1ccc(/C=N\\NC(=O)c2ccccc2Nc2ccccc2C(=O)N/N=C/c2ccc(N(C)C)cc2)cc1", "SF-539 CNS", "TGI", 81.9),
    ("O=C(O[C@H]1CN[C@H](C#Cc2cc3ncnc(Nc4ccc5c(ccn5Cc5cc(F)ccc5F)c4)c3s2)C1)N1CCOCC1", "SF-539 CNS", "TGI", 7.83),
    ("O=C1c2ccccc2-c2c1c1ccccc1c(=O)n2CCCNCCCn1ccnc1", "SF-539 CNS", "TGI", 2.48),
    ("CCOC(=O)Nc1nc2ccc(Cn3cccc3)cc2[nH]1", "SF-539 CNS", "TGI", 7.09),
    ("O=S(=O)(NC1=NCCN1C(=S)SN1CCn2c1nsc2=S)c1ccc(Br)cc1", "SF-539 CNS", "TGI", 38.9),
    ("CC(=O)C(I(OS(=O)(=O)c1ccc(C)cc1)c1ccccc1)=P(c1ccccc1)(c1ccccc1)c1ccccc1", "SF-539 CNS", "TGI", 39.1),
    ("O=c1[nH]c(C23CC4CC(CC(C4)C2)C3)cc2c1c(=O)oc1ccccc12", "SF-539 CNS", "TGI", 17.4),
]

Consider the additional compound presented here.
Task: State its TGI for this compound: C/C1=C/C(C)CC(C)OC(=O)C(C)NC(=O)C(Cc2ccc(O)c(I)c2)N(C)C(=O)CNC(=O)C(C)C1 (stereo unspecified)
Result: 4.94

* * *

Test system: MOLT-4 leukemia
Assay: NCI tumour cell line growth inhibition, 48 h; in the data active = GI50 below about 0.43 µM; inactive = the rest
Choose one outcome from this list and give only that: active, inactive

Past entries and their recorded results:
# COMPOUND, LABEL
measured = [
    ("CC1=C2[C@@H](CC1)[C@]1(C)O[C@@](C3CCCCC3)(C[C@H]1OC(=O)CO)[C@H]2OC(=O)/C=C/c1ccccc1", "inactive"),
    ("O=c1c2cc(Cl)ccc2oc2ccc(OCCCCCN3CCCCC3)cc12", "inactive"),
    ("O=[N+]([O-])c1cc(Cl)c(Cl)c([N+](=O)[O-])c1Cl", "inactive"),
    ("CC(C)=CCCC(C)c1ccc(C)c2c1OCN(CC1CCNCC1)C2 (stereo not given)", "inactive"),
    ("C=C1C(=O)O[C@H]2[C@H]1CC/C(CNC(=O)c1cc3cc(OC)ccc3[nH]1)=C\\CC[C@@]1(C)O[C@@H]21", "inactive"),
    ("CCN(CC)CC(O)CNc1ccc(NCC2CO2)c2c1C(=O)c1ccccc1C2=O (stereo not given)", "active"),
]

Shifting focus to the compound that follows.
Task: Per the records of this test, what outcome belongs to `CN[C@@H](C)C(=O)N[C@H](C(=O)N1CCC[C@H]1C(=O)N[C@H]1c2ccccc2C[C@H]1OCC#CC#CCO[C@@H]1Cc2ccccc2[C@@H]1NC(=O)[C@@H]1CCCN1C(=O)[C@@H](NC(=O)[C@H](C)NC)C1CCCCC1)C1CCCCC1` ?
Result: inactive

* * *

Listing: TGI of selected compounds
Test system: UACC-62 melanoma
Assay: NCI tumour cell line growth inhibition, 48 h
Provide the reading as a plain figure in µM.

Field: example entries. Status: answers known.
# COMPOUND, TESTED SYSTEM, UNIT SPEC, READOUT VALUE
data = [
    ("COc1ccc2nc3c([N+](=O)[O-])ccc4c3c(c2c1)N=CN4CCCN(C)C", "UACC-62 melanoma", "µM", 28.1),
    ("CC(C)=CCCC(C)c1ccc(C)c2c1OCN(CC1CCNCC1)C2 (stereo not given)", "UACC-62 melanoma", "µM", 29.9),
    ("COc1cc(Nc2nccc(Nc3ccc4c(C)[nH]nc4c3)n2)cc(OC)c1OC", "UACC-62 melanoma", "µM", 4.82),
]

With those in mind, consider the next compound.
Task: Report value: TGI, system: UACC-62 melanoma, compound: COC(=O)C1=C(O)C(C(=O)OC)[C@]2(O)[C@H](C(=O)OC)[C@H]1C[C@@H](c1ccc(F)cc1)[C@H]2C(=O)OC (stereo not given in full)
Result: 33.7

* * *

The entries below come with measured TGI values attached.
System: OVCAR-3 ovarian
Assay: NCI tumour cell line growth inhibition, 48 h

In the examples that follow, each entry is paired with its recorded TGI.
# COMPOUND, REPORTED PROPERTY, READOUT VALUE
data = [
    ("Cc1c[nH]c2c(O)cc3c(c12)[C@H](CCl)CN3C(=O)c1cc2cc(NC(=O)Nc3ccc4[nH]c(C(=O)N5C[C@@H](CCl)c6c5cc(O)c5[nH]cc(C)c65)cc4c3)ccc2[nH]1", "TGI", "43.2 µM"),
    ("CN[C@@H](C)C(=O)N[C@H](C(=O)N1CCC[C@H]1C(=O)N[C@H]1c2ccccc2C[C@H]1OCC#CC#CCO[C@@H]1Cc2ccccc2[C@@H]1NC(=O)[C@@H]1CCCN1C(=O)[C@@H](NC(=O)[C@H](C)NC)C1CCCCC1)C1CCCCC1", "TGI", "11.9 µM"),
    ("Cc1cc(C)nc(NS(=O)(=O)c2ccc(NNc3c4ccccc4nc4c(C(=O)Nc5ccc(S(=O)(=O)Nc6ncccn6)cc5)cccc34)cc2)n1", "TGI", "42.2 µM"),
    ("COC(=O)CCc1cc(OC)c2c(c1)C(C(=O)OC)C(c1ccc(OC)c(OC)c1)O2 (configuration not stated)", "TGI", "> 100 µM"),
    ("CC(=O)CC(=O)Nc1ccc2ccccc2c1", "TGI", "> 100 µM"),
]

Task: Return TGI for the following compound: `O=[N+]([O-])c1cc(Cl)c(Cl)c([N+](=O)[O-])c1Cl`
Result: 3.07 µM

Task: Given the compound `CC(C)(C#N)c1cc(Cn2cncn2)cc(C(C)(C)C#N)c1` , write its reported TGI.
Result: > 10000 µM

* * *

Test system: OVCAR-4 ovarian
Experiment: NCI tumour cell line growth inhibition, 48 h
Each entry below carries its reported GI50.

Some compounds with recorded GI50:
# CPD SMILES, GI50
records = [
    ("COc1ccc(/C=N\\NC(=O)CN2CCN(c3cc4c(cc3F)c(=O)c(C(=O)N/N=C/c3ccc(OC)c(OC)c3)cn4C3CC3)CC2)cc1OC", "3.17 µM"),
    ("O=C1c2ccccc2-c2c1c1ccccc1c(=O)n2CCCNCCCn1ccnc1", "6.34 µM"),
    ("CC[C@H](NC(=O)[C@H](C)NC)C(=O)N1C[C@@H](O)C[C@H]1Cc1c(-c2[nH]c3cc(F)ccc3c2C[C@@H]2C[C@H](O)CN2C(=O)[C@H](CC)NC(=O)[C@H](C)NC)[nH]c2cc(F)ccc12", "0.0598 µM"),
]

Task: Give GI50 for `CN[C@@H](C)C(=O)N[C@H](C(=O)N1CCC[C@H]1C(=O)N[C@H]1c2ccccc2C[C@H]1OCC#CC#CCO[C@@H]1Cc2ccccc2[C@@H]1NC(=O)[C@@H]1CCCN1C(=O)[C@@H](NC(=O)[C@H](C)NC)C1CCCCC1)C1CCCCC1`
Result: < 0.01 µM

Task: Recall and state the measured GI50 for `O=c1c2c(nc3n1CCS3)[nH]c1ccccc12` .
Result: > 100 µM

Task: Supply recorded GI50 for `ClCc1cccc(Cn2cnc3c(NC45CC6CC(CC(C6)C4)C5)ncnc32)c1` here.
Result: 15.5 µM
